Please go through the items and note down their gcPBM binding intensity (ln).
Test system: PfAP2-G AP2 domain (GST-tagged)
Assay: gcPBM binding intensity (ln(normalized median fluorescence intensity)); higher = stronger DNA binding
Over roughly 25,000 sequences, “ln(normalized median fluorescence intensity)” has its median near 10; the highest 2% begin near 12. The sample as a whole holds a higher share of the highest values than the screen did.
Returns: the value as a bare number; no unit string appended.

// recorded gcPBM binding intensity (ln) for CATATACACGAACACACACACATATATATATATATA [CACACA_site4437] : 10.5

// recorded gcPBM binding intensity (ln) for TAGGGTAGTTATAATTGTACTTTTCTCCAAAAAAAA [XGTACX_site7321] : 11.3

// recorded gcPBM binding intensity (ln) for AAAAAAAAAAAAAAAAGTACAAGCATTGCGTTTTAA [XGTACX_site6075] : 11.5

// recorded gcPBM binding intensity (ln) for TACATTTATAATAATACACACATAAATTTACATTTT [CACACA_site3463] : 10.1

// recorded gcPBM binding intensity (ln) for AAATTAATGTATATGTGAAGCAAGGGATGCGGCAGA [CACACA_negctrl_site406] : 10.2

// recorded gcPBM binding intensity (ln) for "TTACATGTACAAAAGTTGCACTTCATACACTTTTAT" : 11.1

// recorded gcPBM binding intensity (ln) for ATTTCATTTTATAAGTGTACAATAAAAAAAAAAAAA [XGTACX_site8677] : 11.3

// recorded gcPBM binding intensity (ln) for CCATATATTTGGTATAGTACTTTTTATTTTATTTCA [XGTACX_site8933] : 11.1

// recorded gcPBM binding intensity (ln) for CCCCCCCACGAACACACACACATACATACCACATAT [CACACA_site7149] : 12

// recorded gcPBM binding intensity (ln) for ACAATATGCAAAAAGTGTACACATTCATTTATATAA [XGTACX_site1061] : 11.7

// recorded gcPBM binding intensity (ln) for GCAAATGTGAAAACGTGTACACATTTTATTTAATTT [XGTACX_site8000] : 11.7

// recorded gcPBM binding intensity (ln) for AAAAAAAAAAAAAAAGTACACACTTTTGCGTACATG [CACACA_site3097] : 12.3

// recorded gcPBM binding intensity (ln) for ATTTTTGTAATTATTTGTACACATTTATTTATGTGT [XGTACX_site1864] : 11.5

// recorded gcPBM binding intensity (ln) for CCCCCCCACAGACACACACACATACATACCACATAT [CACACA_site2306] : 11.8

// recorded gcPBM binding intensity (ln) for ATAGGCAAAAAGTGTACACATTCATTTATATAAATA [CACACA_site4480] : 11.7

// recorded gcPBM binding intensity (ln) for TTTATTAAAACAAAATGTACACACATATAATTTAAT [XGTACX_site1637] : 11.2

// recorded gcPBM binding intensity (ln) for CGCATACACGGACACACACACACATATATATATATA [CACACA_site4520] : 11.3

// recorded gcPBM binding intensity (ln) for AATGTGAAAACGTGTACACATTTTATTTAATTTATC [CACACA_site5966] : 11.6

// recorded gcPBM binding intensity (ln) for ATTTAAATAATATGTACACACATTTAAAAAGTTATA [CACACA_site7347] : 11.6

// recorded gcPBM binding intensity (ln) for TATACATTTTTATAAAGTACACAAAAATAAATATAA [XGTACX_site1647] : 11.5

Source of measurements: the supplement of paper PMC11417369
